The measured values listed here are drawn from patent US20170165373A1.

- Experimental target: T1, human BCMA (huBCMA), full length, on cells (human, UniProt Q02223 1-184)
- T1 construct: also called native huBCMA; B-cell maturation antigen
- T1 chain: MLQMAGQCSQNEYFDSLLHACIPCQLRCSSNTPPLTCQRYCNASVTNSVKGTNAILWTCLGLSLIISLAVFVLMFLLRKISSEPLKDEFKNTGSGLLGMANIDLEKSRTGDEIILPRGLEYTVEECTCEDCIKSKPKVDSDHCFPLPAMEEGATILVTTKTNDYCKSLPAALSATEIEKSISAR
- Assay comment: APRIL blocking FACS
- Set-up: concentration or dose not given beside the values
We begin with a simple list: items and their reported Avg. % Inhibition.
The answer should read as a number with its unit following.

Recorded Avg. % Inhibition, per entry:
>>> endpoint_value("35D2 (antibody, V domains shown, also called Ab-15; 35D2.1) VH: EVQLLESGGALVQPGGSLRLSCAASGFTFSSYAMNWVRQAPGKGLEWVSAISVGGGTYYADSVKGRFTISRDNSKNTLYLHVNSLRAEDTAVYYCAKDQVTMVRGVWYYYGLDVWGQGTTVTVSS VL: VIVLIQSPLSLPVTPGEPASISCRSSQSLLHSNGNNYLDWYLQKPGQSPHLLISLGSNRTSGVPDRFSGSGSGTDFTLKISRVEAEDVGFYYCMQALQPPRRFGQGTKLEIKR")
"70%"
>>> endpoint_value("33C7 (antibody, V domains shown, Tested as purified hybridoma IgG2 or IgG4; also called Ab-11; 33C7_HC#1) VH: EVQLLESGGALVQPGGSLRLSCAASGFTFSSYAMNWVRQAPGKGLEWVSAISVGGDTYYADSVKGRFTISRDNSKNTLYLHVNSLSAEDSAVYYCAKDQVTLVRGVWYYYGLDVWGQGTTVTVSS VL: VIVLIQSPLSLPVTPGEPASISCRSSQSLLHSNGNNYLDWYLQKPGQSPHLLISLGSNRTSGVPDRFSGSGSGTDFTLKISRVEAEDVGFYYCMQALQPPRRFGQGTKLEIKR")
"78%"
>>> endpoint_value("32B5 (antibody, V domains shown, 32B5.1 was purified hybridoma IgG2 or IgG4; later converted to human IgG1; also called Ab-10; 32B5.1) VH: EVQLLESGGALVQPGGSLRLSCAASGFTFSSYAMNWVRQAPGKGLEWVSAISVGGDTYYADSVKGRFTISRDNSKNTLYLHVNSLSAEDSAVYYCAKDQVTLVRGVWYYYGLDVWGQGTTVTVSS VL: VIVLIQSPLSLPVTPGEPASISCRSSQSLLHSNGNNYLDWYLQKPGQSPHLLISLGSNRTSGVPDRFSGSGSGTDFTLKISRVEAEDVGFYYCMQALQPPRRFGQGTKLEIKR")
"101%"

Fill in the blank: the reported Avg. % Inhibition of 29C12 (antibody, V domains shown, also called Ab-8; 29C12.1) VH: EVQLLESGGALVQPGGSLRLSCAASGFTFSSYAMNWVRQAPGKGLEWVSAISVGGDTYYADSVKGRFTISRDNSKNTLYLQMNSLRAEDTAVYYCAKDQVTMVRGVWYYYGLDVWGQGTTVTVSS VL: DIVMIQSPLSLPVTPGEPASISCRSSQSLLHSNGNNYLDWYLQKPGQSPHLLISLGSNRTSGVPDRFSGSGSGTDFTLKISRVEAEDVGVYYCMQALQPPRRFGQGTKLEIKR is ____.
46%
